From: patent US20260317320A1

Study Target: complement C5a receptor 1 (C5aR1) (Homo sapiens, UniProt P21730)
Construct: β-galactosidase fragment (PathHunter enzyme complementation); host or cells: CHO-K1 (PathHunter CHO-K1 C5aR1 β-arrestin cell line)
Sequence (P21730 whole entry, the tested form may be a part): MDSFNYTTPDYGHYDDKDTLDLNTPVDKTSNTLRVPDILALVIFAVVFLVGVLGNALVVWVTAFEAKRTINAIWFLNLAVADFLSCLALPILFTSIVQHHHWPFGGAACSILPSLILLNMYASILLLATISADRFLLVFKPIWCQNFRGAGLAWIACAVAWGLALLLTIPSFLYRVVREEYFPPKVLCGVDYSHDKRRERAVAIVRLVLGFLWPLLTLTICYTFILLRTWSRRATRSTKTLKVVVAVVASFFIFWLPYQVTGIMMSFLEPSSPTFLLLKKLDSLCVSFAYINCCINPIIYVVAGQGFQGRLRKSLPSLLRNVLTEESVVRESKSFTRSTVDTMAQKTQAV
Protocol Summary: β-arrestin recruitment via C5aR1 activation in live CHO-K1 cells (PathHunter), antagonist mode
Assay type: cell-based
Experimental Context: antagonist mode; recombinant hC5a (EC90) as competing natural agonist; live CHO-K1 cells; read-out: [Antagonist] B-arrestin2 recruitment: Average IC50
Measured Quantity: IC50

Summary for this compound, Cc1cccc(F)c1N1CCC(c2cc3nccnc3n([C@H]3CCCc4nccnc43)c2=O)CC1 [43b] : IC50 is 500 to 5000 nM

Summary for this compound, Cc1cccc(F)c1N1CCC(c2cc3nccnc3n(Cc3nccnc3OCC(F)(F)F)c2=O)CC1 : IC50 is < 500 nM

Summary for this compound, Cc1cnc2cc(C3CCCCC3)c(=O)n(Cc3ncccc3C(F)(F)F)c2n1 : IC50 is 500 to 5000 nM
